Values from patent US12662479B2

biological target: HiBit-BRG1 fusion protein (Homo sapiens); construct: expressed in transfected cells; assay: HiBiT-BRG1 cell-based degradation assay (Nano-Glo HiBiT Lytic Detection, 24 h); settings: HeLa cells expressing HiBit-BRG1 and LgBit, read-out: BRG1 HiBit Degradation IC50
property: DC50

Example results:
compound | property | assayValue
CS(=O)(=O)n1ccc(C(=O)N[C@@H](COCc2ccc(C(=O)NCCNc3ccc4c(c3)C(=O)N(C3CCC(=O)NC3=O)C4=O)cc2)C(=O)Nc2nc(-c3ccccc3)cs2)c1 (some centres unmarked) | DC50 | > 10 µM
CS(=O)(=O)n1ccc(C(=O)N[C@@H](CCCCNC(=O)C2CC2CNC(=O)COc2cccc3c2C(=O)N(C2CCC(=O)NC2=O)C3=O)C(=O)Nc2nc(-c3ccccc3)cs2)c1 (some centres unmarked) | DC50 | > 10 µM
CS(=O)(=O)n1ccc(C(=O)NCC(=O)Nc2nc(-c3cccc(-c4cccc(CNC(=O)CCOCCOCCOc5cccc6c5C(=O)N(C5CCC(=O)NC5=O)C6=O)c4)c3)cs2)c1 (centres unmarked) | DC50 | > 10 µM

Problem: Dear colleague, I am looking for the recorded DC50 of the following compound: CS(=O)(=O)n1ccc(C(=O)NCC(=O)Nc2nc(-c3cccc(-c4ccnc(N5CCN(C(=O)CCCCCCCCCCNc6ccc7c(c6)C(=O)N(C6CCC(=O)NC6=O)C7=O)CC5)c4)c3)cs2)c1 (centres unmarked)
Solution: < 0.1 µM

Problem: Dear colleague, I am looking for the recorded DC50 of the following compound: Cc1ncsc1-c1ccc(CNC(=O)[C@@H]2C[C@@H](O)CN2C(=O)[C@@H](NC(=O)CCCCCCC(=O)NCCCC[C@H](NC(=O)c2ccn(S(C)(=O)=O)c2)C(=O)Nc2nc(-c3ccccc3)cs2)C(C)(C)C)cc1
Solution: > 10 µM

---

Below, each entry is listed with its recorded DC50.
biological target: HiBit-BRM fusion protein (Homo sapiens, UniProt P51531); construct: expressed in transfected cells; test: HiBiT-BRM cell-based degradation assay (Nano-Glo HiBiT Lytic Detection, 24 h); conditions: HeLa cells expressing HiBiT-BRM, read-out: BRM HiBit Degradation IC50
Sequence (P51531 whole entry, the tested form may be a part): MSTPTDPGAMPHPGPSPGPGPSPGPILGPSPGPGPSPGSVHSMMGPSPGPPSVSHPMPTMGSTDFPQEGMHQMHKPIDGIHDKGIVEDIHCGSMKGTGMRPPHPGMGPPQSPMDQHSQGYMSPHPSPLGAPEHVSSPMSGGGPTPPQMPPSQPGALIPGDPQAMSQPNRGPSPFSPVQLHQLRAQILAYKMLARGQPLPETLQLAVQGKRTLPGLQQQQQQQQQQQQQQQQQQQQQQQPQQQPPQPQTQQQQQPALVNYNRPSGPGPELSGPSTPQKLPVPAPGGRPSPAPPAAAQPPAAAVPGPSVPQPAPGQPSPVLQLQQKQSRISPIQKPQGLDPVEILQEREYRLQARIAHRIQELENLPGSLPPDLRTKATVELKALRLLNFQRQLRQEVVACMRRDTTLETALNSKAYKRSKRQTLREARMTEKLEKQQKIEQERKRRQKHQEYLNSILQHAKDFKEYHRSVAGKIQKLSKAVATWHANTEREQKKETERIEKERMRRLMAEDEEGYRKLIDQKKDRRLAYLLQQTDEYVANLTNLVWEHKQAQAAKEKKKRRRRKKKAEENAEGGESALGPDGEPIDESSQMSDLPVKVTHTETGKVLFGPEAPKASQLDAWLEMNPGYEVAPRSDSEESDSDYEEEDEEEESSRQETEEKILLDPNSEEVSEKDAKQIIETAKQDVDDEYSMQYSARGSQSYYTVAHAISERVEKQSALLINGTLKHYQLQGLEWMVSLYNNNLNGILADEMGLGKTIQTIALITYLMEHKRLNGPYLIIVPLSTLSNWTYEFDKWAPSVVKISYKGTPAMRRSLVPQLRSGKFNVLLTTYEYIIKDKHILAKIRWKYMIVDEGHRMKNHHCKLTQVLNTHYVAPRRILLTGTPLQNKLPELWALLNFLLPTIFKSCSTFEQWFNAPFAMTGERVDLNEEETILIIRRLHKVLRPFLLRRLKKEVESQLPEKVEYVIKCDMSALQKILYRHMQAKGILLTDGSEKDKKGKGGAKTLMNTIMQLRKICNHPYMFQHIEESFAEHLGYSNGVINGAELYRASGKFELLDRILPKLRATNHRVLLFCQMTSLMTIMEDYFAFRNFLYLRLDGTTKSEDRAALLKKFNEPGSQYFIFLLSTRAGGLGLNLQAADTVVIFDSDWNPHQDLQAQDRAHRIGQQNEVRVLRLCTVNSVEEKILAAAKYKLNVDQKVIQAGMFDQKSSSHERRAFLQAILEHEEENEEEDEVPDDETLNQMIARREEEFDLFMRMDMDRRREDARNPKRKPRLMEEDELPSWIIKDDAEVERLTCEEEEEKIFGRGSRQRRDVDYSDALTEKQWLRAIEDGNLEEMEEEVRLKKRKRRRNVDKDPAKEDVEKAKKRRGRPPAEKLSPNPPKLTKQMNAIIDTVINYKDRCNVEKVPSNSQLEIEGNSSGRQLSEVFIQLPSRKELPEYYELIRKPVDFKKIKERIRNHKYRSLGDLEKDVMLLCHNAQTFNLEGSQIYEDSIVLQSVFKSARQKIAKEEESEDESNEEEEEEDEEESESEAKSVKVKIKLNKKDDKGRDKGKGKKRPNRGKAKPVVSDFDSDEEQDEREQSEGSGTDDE

Example results:
compound | DC50
CS(=O)(=O)n1ccc(C(=O)NCC(=O)Nc2nc(-c3cccc(-c4ccnc(C5(C(=O)NCCCCCNc6cccc7c6C(=O)N(C6CCC(=O)NC6=O)C7=O)CC5)c4)c3)cs2)c1 (stereo not drawn) [Compound 12] | > 10000 nM
CS(=O)(=O)n1ccc(C(=O)NCC(=O)Nc2nc(-c3cccc(-c4cccc(CNC(=O)C5CC5CNC(=O)COc5ccc6c(c5)C(=O)N(C5CCC(=O)NC5=O)C6=O)c4)c3)cs2)c1 (stereo not drawn) [Compound 61] | 1000 to 10000 nM

Okay, next one:
Problem: Dear colleague, I am looking for the recorded DC50 of the following compound: CS(=O)(=O)n1ccc(C(=O)N[C@@H](COCc2ccc(C(=O)NCCOC3CN(c4ccc5c(c4)C(=O)N(C4CCC(=O)NC4=O)C5=O)C3)cc2)C(=O)Nc2nc(-c3ccccc3)cs2)c1 (stereo partly drawn) [Compound 246]
Solution: 100 to 1000 nM

---

target: HiBit-BRG1 fusion protein (Homo sapiens); construct: expressed in transfected cells; test: HiBiT-BRG1 cell-based degradation assay (Nano-Glo HiBiT Lytic Detection, 24 h); conditions: HeLa cells expressing HiBit-BRG1 and LgBit, read-out: BRG1 HiBit Degradation IC50
Structures can show the parent of a compound that is named as a salt.
property: DC50

Example results:
molecule | property | assayValue
CN(CCNC(=O)C1(c2cc(-c3cccc(-c4csc(NC(=O)CNC(=O)c5ccn(S(C)(=O)=O)c5)n4)c3)ccn2)CC1)CCOCCOc1cccc2c1C(=O)N(C1CCC(=O)NC1=O)C2=O (centres unmarked) | DC50 | > 10 µM
CS(=O)(=O)n1ccc(C(=O)N[C@@H](COCc2ccc(C(=O)NCCOCCOCCNC(=O)COc3ccc4c(c3)C(=O)N(C3CCC(=O)NC3=O)C4=O)cc2)C(=O)Nc2nc(-c3ccccc3)cs2)c1 (some centres unmarked) | DC50 | > 10 µM
CN(CCCCNC(=O)C1(c2cc(-c3cccc(-c4csc(NC(=O)CNC(=O)c5ccn(S(C)(=O)=O)c5)n4)c3)ccn2)CC1)CCCNc1cccc2c1C(=O)N(C1CCC(=O)NC1=O)C2=O (centres unmarked) | DC50 | > 10 µM
CS(=O)(=O)n1ccc(C(=O)NCC(=O)Nc2nc(-c3cccc(-c4ccnc(N5CCN(c6ccc7c(c6)C(=O)N(C6CCC(=O)NC6=O)C7=O)CC5)c4)c3)cs2)c1 (centres unmarked) [Compound 165, trifluoroacetate] | DC50 | > 10 µM

Okay, next one:
Problem: Dear colleague, I am looking for the recorded DC50 of the following molecule: Cc1ncsc1-c1ccc(CNC(=O)[C@@H]2C[C@@H](O)CN2C(=O)[C@@H](NC(=O)CCCCCCCCCNC(=O)C2(c3cc(-c4cccc(-c5csc(NC(=O)CNC(=O)c6ccn(S(C)(=O)=O)c6)n5)c4)ccn3)CC2)C(C)(C)C)cc1
Solution: < 0.1 µM

---

target: HiBit-BRG1 fusion protein (Homo sapiens, UniProt P51532); construct: expressed in transfected cells; experiment: HiBiT-BRG1 cell-based degradation assay (Nano-Glo HiBiT Lytic Detection, 24 h); settings: HeLa cells expressing HiBit-BRG1 and LgBit, read-out: BRG1 HiBit Degradation IC50
Sequence (P51532 whole entry, the tested form may be a part): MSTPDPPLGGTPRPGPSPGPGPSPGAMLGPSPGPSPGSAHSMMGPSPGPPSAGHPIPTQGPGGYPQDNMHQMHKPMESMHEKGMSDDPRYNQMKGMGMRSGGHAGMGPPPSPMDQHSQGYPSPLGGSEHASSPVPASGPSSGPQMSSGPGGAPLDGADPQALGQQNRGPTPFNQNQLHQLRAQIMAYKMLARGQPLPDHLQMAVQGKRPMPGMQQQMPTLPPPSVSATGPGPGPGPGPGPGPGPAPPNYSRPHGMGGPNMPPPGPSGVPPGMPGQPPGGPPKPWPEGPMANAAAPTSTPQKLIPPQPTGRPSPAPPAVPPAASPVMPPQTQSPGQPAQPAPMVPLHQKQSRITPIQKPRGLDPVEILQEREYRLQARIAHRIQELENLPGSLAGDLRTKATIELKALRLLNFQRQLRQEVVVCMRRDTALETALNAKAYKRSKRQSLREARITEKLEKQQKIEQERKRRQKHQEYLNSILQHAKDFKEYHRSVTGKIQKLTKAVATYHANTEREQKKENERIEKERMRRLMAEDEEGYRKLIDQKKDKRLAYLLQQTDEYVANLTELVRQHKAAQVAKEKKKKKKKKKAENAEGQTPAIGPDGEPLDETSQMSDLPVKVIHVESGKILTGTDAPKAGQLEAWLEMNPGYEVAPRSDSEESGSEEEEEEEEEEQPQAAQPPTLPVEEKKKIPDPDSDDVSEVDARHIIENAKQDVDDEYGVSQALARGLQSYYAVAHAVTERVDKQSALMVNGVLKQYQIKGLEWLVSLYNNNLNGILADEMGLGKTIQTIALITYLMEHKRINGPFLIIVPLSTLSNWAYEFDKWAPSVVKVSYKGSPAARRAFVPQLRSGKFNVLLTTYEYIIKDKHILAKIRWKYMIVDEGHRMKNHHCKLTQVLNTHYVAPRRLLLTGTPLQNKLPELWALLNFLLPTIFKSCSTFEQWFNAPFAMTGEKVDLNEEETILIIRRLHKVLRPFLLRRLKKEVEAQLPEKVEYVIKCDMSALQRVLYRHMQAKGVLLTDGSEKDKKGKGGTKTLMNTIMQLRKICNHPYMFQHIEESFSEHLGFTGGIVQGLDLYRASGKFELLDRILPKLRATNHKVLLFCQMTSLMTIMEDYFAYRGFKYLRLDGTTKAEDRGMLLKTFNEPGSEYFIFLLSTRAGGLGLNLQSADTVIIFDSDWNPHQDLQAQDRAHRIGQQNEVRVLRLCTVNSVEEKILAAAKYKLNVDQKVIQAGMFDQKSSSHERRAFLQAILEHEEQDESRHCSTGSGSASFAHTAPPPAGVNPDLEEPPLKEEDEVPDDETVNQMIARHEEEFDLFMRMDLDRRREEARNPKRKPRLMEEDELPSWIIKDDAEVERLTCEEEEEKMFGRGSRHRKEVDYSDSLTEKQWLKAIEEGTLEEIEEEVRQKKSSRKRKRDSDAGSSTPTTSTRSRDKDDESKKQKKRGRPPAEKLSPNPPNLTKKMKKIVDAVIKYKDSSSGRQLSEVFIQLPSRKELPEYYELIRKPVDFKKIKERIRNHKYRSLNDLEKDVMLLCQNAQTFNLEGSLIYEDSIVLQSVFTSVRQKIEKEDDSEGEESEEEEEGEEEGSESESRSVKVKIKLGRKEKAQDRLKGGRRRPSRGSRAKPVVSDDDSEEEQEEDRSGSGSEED
property: DC50

Example results:
compound | property | assayValue
CS(=O)(=O)n1ccc(C(=O)NCC(=O)Nc2nc(-c3cccc(-c4ccnc(C5(C(=O)NCCOCCOCCNc6ccc7c(c6)C(=O)N(C6CCC(=O)NC6=O)C7=O)CC5)c4)c3)cs2)c1 (stereo not drawn) [Compound 101] | DC50 | > 10 µM
CS(=O)(=O)n1ccc(C(=O)NCC(=O)Nc2nc(-c3cccc(-c4ccn(CC(=O)NCCOCCOCCNc5cccc6c5C(=O)N(C5CCC(=O)NC5=O)C6=O)n4)c3)cs2)c1 (stereo not drawn) [Compound 3] | DC50 | > 10 µM

Okay, next one:
Problem: Dear colleague, I am looking for the recorded DC50 of the following compound: CS(=O)(=O)n1ccc(C(=O)N[C@@H](COCc2ccc(C(=O)NCCCC#Cc3cccc4c3C(=O)N(C3CCC(=O)NC3=O)C4=O)cc2)C(=O)Nc2nc(-c3ccccc3)cs2)c1 (stereo partly drawn) [Compound 205]
Solution: > 10 µM

---

target: HiBit-BRG1 fusion protein (Homo sapiens, UniProt P51532); construct: expressed in transfected cells; test: HiBiT-BRG1 cell-based degradation assay (Nano-Glo HiBiT Lytic Detection, 24 h); details: HeLa, HeLa cells expressing HiBit-BRG1 and LgBit, top dose 30 μM, read-out: BRG1 HiBit Degradation Maximum measured
Structures can show the parent of a compound that is named as a salt.
Below, each entry is listed with its recorded Dmax.

Example results:
molecule | Dmax
CS(=O)(=O)n1ccc(C(=O)N[C@@H](COCc2ccc(C(=O)N3CC(COc4cccc5c4C(=O)N(C4CCC(=O)NC4=O)C5=O)C3)cc2)C(=O)Nc2nc(-c3ccccc3)cs2)c1 (stereo partly drawn) | < 50%
CC(C)(C)n1ccc(C(=O)N[C@@H](COCc2ccc(C(=O)NC3CCN(CCOc4ccc5c(c4)C(=O)N(C4CCC(=O)NC4=O)C5=O)CC3)cc2)C(=O)Nc2nc(-c3ccccc3)cs2)c1 (stereo partly drawn) | > 75%
CS(=O)(=O)n1ccc(C(=O)N[C@@H](CCOCCCC(=O)NCCCC#Cc2cccc3c2C(=O)N(C2CCC(=O)NC2=O)C3=O)C(=O)Nc2nc(-c3ccccc3)cs2)c1 (stereo partly drawn) | < 50%
Cc1ncsc1-c1ccc(CNC(=O)[C@@H]2C[C@@H](O)CN2C(=O)[C@@H](NC(=O)CCCCCCCCCCCC(=O)NCc2cccc(-c3cccc(-c4csc(NC(=O)CNC(=O)c5ccn(S(C)(=O)=O)c5)n4)c3)c2)C(C)(C)C)cc1 | > 75%
Cc1ncsc1-c1ccc(CNC(=O)[C@@H]2C[C@@H](O)CN2C(=O)[C@@H](NC(=O)COCCOCCNC(=O)CN(C)c2cc(-c3cccc(-c4csc(NC(=O)CNC(=O)c5ccn(S(C)(=O)=O)c5)n4)c3)ccn2)C(C)(C)C)cc1 | < 50%

Problem: Dear colleague, I am looking for the recorded Dmax of the following molecule: CN(CCNC(=O)COc1ccc2c(c1)C(=O)N(C1CCC(=O)NC1=O)C2=O)CCNC(=O)C1(c2cc(-c3cccc(-c4csc(NC(=O)CNC(=O)c5ccn(S(C)(=O)=O)c5)n4)c3)ccn2)CC1 (stereo not drawn)
Solution: < 50%

Problem: Dear colleague, I am looking for the recorded Dmax of the following molecule: Cc1ncsc1-c1ccc(CNC(=O)[C@@H]2C[C@@H](O)CN2C(=O)[C@@H](NC(=O)C2CC3(CC(C(=O)NCc4cccc(-c5cccc(-c6csc(NC(=O)CNC(=O)c7ccn(S(C)(=O)=O)c7)n6)c5)c4)C3)C2)C(C)(C)C)cc1 (stereo partly drawn)
Solution: < 50%

Problem: Dear colleague, I am looking for the recorded Dmax of the following molecule: Cc1ncsc1-c1ccc(CNC(=O)[C@@H]2C[C@@H](O)CN2C(=O)[C@@H](NC(=O)CCCCCCCCCCCCCCC(=O)NCc2cccc(-c3cccc(-c4csc(NC(=O)CNC(=O)c5ccn(S(C)(=O)=O)c5)n4)c3)c2)C(C)(C)C)cc1
Solution: < 50%

Problem: Dear colleague, I am looking for the recorded Dmax of the following molecule: CS(=O)(=O)n1ccc(C(=O)NCC(=O)Nc2nc(C3CCCN(C(=O)C4CCN(CCOc5ccc6c(c5)C(=O)N(C5CCC(=O)NC5=O)C6=O)CC4)C3)cs2)c1 (stereo not drawn) [Compound 145, formate]
Solution: < 50%
